- subject_of_test: human FSH receptor (Homo sapiens, UniProt P23945)
- Construct: expressed in transfected cells; host or cells: Chinese Hamster Ovary (CHO) cells, stably transfected, cotransfected with CRE/promotor-firefly luciferase reporter
- Sequence (P23945 18-695): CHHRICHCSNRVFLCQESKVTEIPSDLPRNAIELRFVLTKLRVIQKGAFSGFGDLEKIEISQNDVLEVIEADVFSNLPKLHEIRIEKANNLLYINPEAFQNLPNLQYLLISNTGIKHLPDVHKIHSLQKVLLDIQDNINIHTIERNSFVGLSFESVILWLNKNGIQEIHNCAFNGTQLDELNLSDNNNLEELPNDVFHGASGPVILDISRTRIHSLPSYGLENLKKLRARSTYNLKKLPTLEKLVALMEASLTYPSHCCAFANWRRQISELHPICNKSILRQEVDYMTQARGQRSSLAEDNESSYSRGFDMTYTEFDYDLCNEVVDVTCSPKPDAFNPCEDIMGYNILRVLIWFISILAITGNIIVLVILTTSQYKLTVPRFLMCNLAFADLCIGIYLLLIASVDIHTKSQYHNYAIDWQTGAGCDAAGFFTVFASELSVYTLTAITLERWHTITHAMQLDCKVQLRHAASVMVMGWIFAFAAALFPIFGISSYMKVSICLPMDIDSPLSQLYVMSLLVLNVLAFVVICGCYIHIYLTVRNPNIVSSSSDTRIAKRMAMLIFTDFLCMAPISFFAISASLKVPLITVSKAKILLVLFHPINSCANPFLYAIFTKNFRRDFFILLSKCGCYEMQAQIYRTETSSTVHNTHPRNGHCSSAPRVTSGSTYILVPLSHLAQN
- test_name: Agonistic activity of compounds at the human FSH receptor expressed in CHO cells, CRE/luciferase reporter (hFSHRago (CHO luc))
- Type: cell-based
- condition_context: CHO cells stably transfected with the human FSH receptor and CRE/firefly luciferase reporter; 4 hours of incubation; half-maximal stimulation relative to the compound's own maximal effect; read-out: hFSHRago (CHO luc) EC50

{"molecule": "COc1cc2c(cc1NC(=O)c1cscn1)-c1c(-c3cccs3)nc(C(=O)N(C)C(C)(C)C)n1CC2", "subject_of_test": "human FSH receptor (Homo sapiens, UniProt P23945)", "display_unit": "nM", "EC50": 13}
{"molecule": "COc1cc2c(cc1C=C(F)F)-c1c(-c3cccs3)nc(C(=O)N(C)C(C)(C)C)n1CC2", "subject_of_test": "human FSH receptor (Homo sapiens, UniProt P23945)", "display_unit": "nM", "EC50": 22}
{"molecule": "CCOc1ccc2c(c1)CCn1c(C(=O)N(C)C(C)(C)C)nc(-c3cccs3)c1-2 [Example 40c]", "subject_of_test": "human FSH receptor (Homo sapiens, UniProt P23945)", "display_unit": "nM", "EC50": 417}
{"molecule": "CCN(C(=O)c1nc(-c2cccs2)c2n1CCc1cc(OC)c(OC(C)C)cc1-2)C(C)(C)C [Example 21f]", "subject_of_test": "human FSH receptor (Homo sapiens, UniProt P23945)", "display_unit": "nM", "EC50": 0.9}
